The values you see were collected from patent US20250100996A1.

# TARGET_DESC: IKZF3 (Aiolos) (Homo sapiens)
# Construct: Leu-Asp junction (codons ctcgac before the linker); mScarlet (behind P2A) (C, cleaved yes); expressed in transfected cells
# Sequence (Q96SW2 whole entry partner): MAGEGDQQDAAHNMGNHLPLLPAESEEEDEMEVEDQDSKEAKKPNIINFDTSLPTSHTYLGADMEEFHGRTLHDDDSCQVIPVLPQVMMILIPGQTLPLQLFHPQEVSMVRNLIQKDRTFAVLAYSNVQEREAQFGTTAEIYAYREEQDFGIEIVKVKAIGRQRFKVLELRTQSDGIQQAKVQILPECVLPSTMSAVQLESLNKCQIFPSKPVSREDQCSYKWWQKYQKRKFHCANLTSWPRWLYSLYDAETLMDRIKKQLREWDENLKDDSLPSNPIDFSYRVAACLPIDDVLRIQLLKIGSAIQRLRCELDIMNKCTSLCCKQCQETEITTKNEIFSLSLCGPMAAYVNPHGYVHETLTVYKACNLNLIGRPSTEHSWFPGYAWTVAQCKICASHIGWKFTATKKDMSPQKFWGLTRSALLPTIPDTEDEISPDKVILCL
# Sequence (Q16531 whole entry partner): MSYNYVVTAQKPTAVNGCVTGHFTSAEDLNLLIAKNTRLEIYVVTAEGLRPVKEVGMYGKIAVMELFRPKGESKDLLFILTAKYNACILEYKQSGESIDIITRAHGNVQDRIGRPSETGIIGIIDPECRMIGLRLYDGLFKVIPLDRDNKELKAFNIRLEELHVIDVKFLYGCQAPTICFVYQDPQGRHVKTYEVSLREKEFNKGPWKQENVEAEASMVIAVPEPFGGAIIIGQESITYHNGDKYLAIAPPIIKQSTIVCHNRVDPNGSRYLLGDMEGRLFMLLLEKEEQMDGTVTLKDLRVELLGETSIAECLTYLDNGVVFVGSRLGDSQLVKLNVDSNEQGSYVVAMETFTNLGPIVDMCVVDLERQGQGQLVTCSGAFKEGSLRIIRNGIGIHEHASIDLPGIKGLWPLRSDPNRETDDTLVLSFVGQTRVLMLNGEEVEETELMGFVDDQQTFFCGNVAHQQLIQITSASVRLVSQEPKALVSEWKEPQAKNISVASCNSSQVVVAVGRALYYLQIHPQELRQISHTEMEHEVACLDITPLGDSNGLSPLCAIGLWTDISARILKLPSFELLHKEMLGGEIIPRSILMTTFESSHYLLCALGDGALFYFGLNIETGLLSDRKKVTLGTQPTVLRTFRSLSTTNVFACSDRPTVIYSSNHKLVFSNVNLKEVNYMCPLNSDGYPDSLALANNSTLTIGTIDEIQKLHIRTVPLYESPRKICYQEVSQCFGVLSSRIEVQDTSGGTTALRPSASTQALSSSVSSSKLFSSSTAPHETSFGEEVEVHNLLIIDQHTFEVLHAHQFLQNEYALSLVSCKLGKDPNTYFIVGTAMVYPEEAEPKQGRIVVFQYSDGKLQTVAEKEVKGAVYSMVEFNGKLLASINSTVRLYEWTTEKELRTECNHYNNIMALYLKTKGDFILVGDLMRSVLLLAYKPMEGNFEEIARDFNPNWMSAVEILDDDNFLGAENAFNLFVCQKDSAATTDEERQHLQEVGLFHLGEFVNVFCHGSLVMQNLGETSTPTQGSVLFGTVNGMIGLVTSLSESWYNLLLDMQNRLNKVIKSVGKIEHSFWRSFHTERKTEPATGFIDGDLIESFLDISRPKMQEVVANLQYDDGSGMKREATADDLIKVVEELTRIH
# Sequence (Q9UKT9 whole entry): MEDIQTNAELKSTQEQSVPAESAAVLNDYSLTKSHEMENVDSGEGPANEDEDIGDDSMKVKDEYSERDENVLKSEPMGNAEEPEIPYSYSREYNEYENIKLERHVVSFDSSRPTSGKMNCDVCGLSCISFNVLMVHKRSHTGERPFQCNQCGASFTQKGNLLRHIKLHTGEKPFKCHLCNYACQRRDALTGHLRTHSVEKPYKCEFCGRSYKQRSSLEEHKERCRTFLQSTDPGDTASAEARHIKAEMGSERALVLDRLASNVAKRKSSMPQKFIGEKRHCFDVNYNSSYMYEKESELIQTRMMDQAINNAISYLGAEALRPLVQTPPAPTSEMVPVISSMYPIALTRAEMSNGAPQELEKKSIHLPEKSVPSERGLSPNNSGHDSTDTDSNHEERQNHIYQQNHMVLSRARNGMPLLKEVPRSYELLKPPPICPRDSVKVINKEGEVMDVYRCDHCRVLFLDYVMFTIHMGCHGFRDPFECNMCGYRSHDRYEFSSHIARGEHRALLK
# ASSAY_METHOD_TEXT: IKZF3 reporter degradation assay (HEK 293T IKZF3-mNeonGreen reporter cell line)
# Type: cell-based
# RECORDED_CONDITIONS: HEK-293T, 24 h, @ 1 μM, HEK 293T IKZF3-mNeonGreen reporter, 24 hours incubation
# Description: Polycistronic plasmids were constructed for the mammalian expression of fluorescent reporter fusions of human transcription factors IKZF1 (Ikaros), IKZF2 (Helios), and IKZF3 (Aiolos). […] The DNA sequences of the open reading frames are as follows: […] The IKZF1/IKZF2/IKZF3 degradation assays were carried out by harvesting the HEK 293T reporter cell lines and resuspending the cells in media formulated for reduced background fluorescence (FluoroBrite; Thermo Fisher). […]
PROPERTY_MEASURED: inhibition at 1 µM (%)

These solved cases illustrate the format of a correct answer.
O=C1CCC(N2Cc3cc(O[C@H]4CCCC[C@@H]4N4CC(C5CCN(C(=O)C6CC(F)(F)C6)CC5)C4)ccc3C2=O)C(=O)N1 (stereo partly drawn) = 24.1
CC1CC1C(=O)N1CCC(C2CN([C@H]3CCCC[C@@H]3Oc3ccc4c(c3)CN(C3CCC(=O)NC3=O)C4=O)C2)CC1 (stereo partly drawn) = 23.5

P = O=C1CCC(N2Cc3cc(O[C@H]4CCCC[C@@H]4N4CC(c5ccc(C(F)(F)F)cn5)C4)ccc3C2=O)C(=O)N1 (single isomer, unassigned)
Q = N#CC1(C(=O)N2CCC(C3CN([C@H]4CCCC[C@@H]4Oc4ccc5c(c4)CN(C4CCC(=O)NC4=O)C5=O)C3)CC2)CCC1 (stereo partly drawn)
input: Which of the two items, P and Q , has the greater recorded inhibition at 1 µM? Refer to your chosen item by its label in the answer.
output: Q
(Q: 63.4%, P: 37.4%)
